- measurement.target: Tyrosine-protein phosphatase non-receptor type 1 (Homo sapiens, UniProt P18031)
- Sequence (P18031 whole entry): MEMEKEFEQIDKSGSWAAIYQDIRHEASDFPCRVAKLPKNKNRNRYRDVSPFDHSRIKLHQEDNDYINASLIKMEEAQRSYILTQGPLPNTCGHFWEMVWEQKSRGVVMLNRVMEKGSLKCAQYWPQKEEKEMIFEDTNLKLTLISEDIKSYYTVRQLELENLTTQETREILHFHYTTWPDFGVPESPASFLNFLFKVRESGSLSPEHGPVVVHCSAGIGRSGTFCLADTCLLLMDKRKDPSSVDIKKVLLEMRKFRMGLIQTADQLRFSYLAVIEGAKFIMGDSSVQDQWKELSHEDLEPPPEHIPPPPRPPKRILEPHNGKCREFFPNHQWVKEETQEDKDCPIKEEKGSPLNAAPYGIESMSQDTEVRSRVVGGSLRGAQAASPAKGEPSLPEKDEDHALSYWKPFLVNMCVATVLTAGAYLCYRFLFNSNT
pIC50: −log10 of the molar value.
Parameter pIC50: see the listing below.
parameter.measured: pIC50

C[C@@H]1C[C@H](C)[C@H]2[C@H]3Oc4ccc(cc4)C[C@]4(O)C[C@]5(C[C@H](O)OO[C@@]6(C)[C@H]7O[C@@]7(C)[C@H]([C@H]3[C@H]6C5=O)[C@]2(C)C1)C(=O)N4 < 3.70
CO[C@@]12Cc3ccc(cc3)O[C@H]3[C@@H]4[C@H]5C(=O)[C@](C[C@H](O)OO[C@@]5(C)[C@H]5O[C@@]5(C)[C@H]4[C@]4(C)C[C@H](C)C[C@H](C)[C@@H]34)(C1)C(=O)N2 < 3.70

----------
- measurement.target: Tyrosine-protein phosphatase non-receptor type 1 (Homo sapiens, UniProt P18031)
- Sequence (P18031 whole entry): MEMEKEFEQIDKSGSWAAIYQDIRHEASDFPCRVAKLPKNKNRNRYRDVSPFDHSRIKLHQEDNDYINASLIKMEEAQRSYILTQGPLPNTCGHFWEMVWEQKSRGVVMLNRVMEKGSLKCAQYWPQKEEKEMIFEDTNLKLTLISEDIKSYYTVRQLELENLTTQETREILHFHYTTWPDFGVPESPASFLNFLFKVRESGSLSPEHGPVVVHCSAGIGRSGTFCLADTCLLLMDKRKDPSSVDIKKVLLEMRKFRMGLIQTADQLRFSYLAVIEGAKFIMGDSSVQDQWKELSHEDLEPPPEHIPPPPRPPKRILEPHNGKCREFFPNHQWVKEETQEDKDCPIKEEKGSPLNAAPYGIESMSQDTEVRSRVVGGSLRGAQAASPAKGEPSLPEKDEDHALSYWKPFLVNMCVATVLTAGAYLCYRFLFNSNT
pIC50: −log10 of the molar value.
Reported pIC50 values for a set of compounds
parameter.measured: pIC50

CO[C@@H]1C2Cc3ccc(cc3)O[C@H]3[C@@H]4[C@H]5C(=O)[C@@]1(C[C@@H](O)[C@@]5(C)C=C(C)[C@H]4[C@]1(C)C[C@H](C)C[C@H](C)[C@@H]31)C(=O)N2 4.00
C=C[C@@]1(C)C=C(C)[C@@H]2[C@@H]3[C@@H](Oc4ccc(cc4)C[C@@]4(O)C/C(=C(/O)[C@H]31)C(=O)N4)[C@@H]1[C@@H](C)C[C@@H](C)C[C@]12C 4.05
CC1=C[C@@]2(C)[C@@H]3C(=O)[C@@]4(C[C@@H]2O)C(=O)NC(Cc2ccc(cc2)O[C@H]2[C@H]3[C@@H]1[C@]1(C)C[C@H](C)C[C@H](C)[C@@H]21)[C@H]4O 4.00
CO[C@@]12Cc3ccc(cc3)O[C@H]3[C@H]([C@H]4C(=O)[C@](C[C@@H](O)[C@]4(C)C=O)(C1)C(=O)N2)[C@@H](C(C)=O)[C@]1(C)C[C@H](C)C[C@H](C)[C@@H]31 4.24
CO[C@@H]1C2Cc3ccc(cc3)O[C@H]3[C@@H]4[C@H]5C(=O)[C@@]1(C[C@H](O)[C@@]5(C)C=C(C)[C@H]4[C@]1(C)C[C@H](C)C[C@H](C)[C@@H]31)C(=O)N2 4.18
C=C[C@@]1(C)C=C(C)[C@@H]2[C@@H]3[C@H](Oc4ccc(cc4)C[C@@H]4C(=O)NC(=O)[C@@H]4C(=O)[C@H]31)[C@@H]1[C@@H](C)C[C@@H](C)C[C@]12C 4.60

----------
# IC50 annotations
- measurement.target: Tyrosine-protein phosphatase non-receptor type 2 (Homo sapiens, UniProt P17706)
parameter.measured: IC50

CO[C@@H]1/C2=C3\O[C@@H](C)[C@@]4(C)C=C(C)[C@@H]5[C@H]([C@H](Oc6ccc(cc6)C[C@]1(O)NC2=O)[C@@H]1[C@@H](C)C[C@@H](C)C[C@]15C)[C@@H]34 79 µM
CO[C@@H]1C2Cc3ccc(cc3)O[C@H]3[C@@H]4[C@H]5C(=O)[C@@]1(C[C@@H](O)[C@@]5(C)C=C(C)[C@H]4[C@]1(C)C[C@H](C)C[C@H](C)[C@@H]31)C(=O)N2 > 200 µM
CC(=O)[C@@H]1[C@@H]2[C@H](Oc3ccc(cc3)C[C@]3(O)C[C@]4(C[C@@H](O)[C@](C)(C=O)[C@@H]2C4=O)C(=O)N3)[C@@H]2[C@@H](C)C[C@@H](C)C[C@]21C > 200 µM

----------
Target sequence: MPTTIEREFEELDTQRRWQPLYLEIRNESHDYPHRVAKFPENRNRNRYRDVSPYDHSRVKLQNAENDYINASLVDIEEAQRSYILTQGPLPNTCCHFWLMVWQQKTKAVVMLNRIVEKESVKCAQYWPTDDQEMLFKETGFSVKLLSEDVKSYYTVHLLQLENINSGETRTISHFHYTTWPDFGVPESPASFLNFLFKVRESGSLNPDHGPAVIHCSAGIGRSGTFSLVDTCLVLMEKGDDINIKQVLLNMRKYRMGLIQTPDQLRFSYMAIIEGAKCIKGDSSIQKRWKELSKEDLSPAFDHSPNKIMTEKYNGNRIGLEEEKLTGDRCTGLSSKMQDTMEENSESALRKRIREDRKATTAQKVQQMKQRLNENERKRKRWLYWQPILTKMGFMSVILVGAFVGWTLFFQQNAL
parameter.measured: IC50 (µM)

CO[C@@]12Cc3ccc(cc3)O[C@H]3[C@H]([C@H]4C(=O)[C@](C[C@@H](O)[C@]4(C)C=O)(C1)C(=O)N2)[C@@H](C(C)=O)[C@]1(C)C[C@H](C)C[C@H](C)[C@@H]31 130
C=C[C@@]1(C)C=C(C)[C@@H]2[C@@H]3[C@H](Oc4ccc(cc4)C[C@@H]4C(=O)NC(=O)[C@@H]4C(=O)[C@H]31)[C@@H]1[C@@H](C)C[C@@H](C)C[C@]12C 14

----------
- System: Staphylococcus aureus
- experiment.notes: Antibacterial activity against methicillin-resistant Staphylococcus aureus assessed as reduction in microbial growth after 12 hrs by microbroth dilution method
- Type: functional
parameter.measured: MIC (µg/mL)

CO[C@@H]1C2Cc3ccc(cc3)O[C@H]3[C@@H]4[C@H]5C(=O)[C@@]1(C[C@@H](O)[C@@]5(C)C=C(C)[C@H]4[C@]1(C)C[C@H](C)C[C@H](C)[C@@H]31)C(=O)N2 20
C=C[C@@]1(C)C=C(C)[C@@H]2[C@@H]3[C@H](Oc4ccc(cc4)C[C@@H]4C(=O)NC(=O)[C@@H]4C(=O)[C@H]31)[C@@H]1[C@@H](C)C[C@@H](C)C[C@]12C 50
C[C@@H]1C[C@H](C)[C@H]2[C@H]3Oc4ccc(cc4)C[C@]4(O)C[C@]5(C[C@H](O)OO[C@@]6(C)[C@H]7O[C@@]7(C)[C@H]([C@H]3[C@H]6C5=O)[C@]2(C)C1)C(=O)N4 50
CO[C@@H]1C2Cc3ccc(cc3)O[C@H]3[C@@H]4[C@H]5C(=O)[C@@]1(C[C@H](O)[C@@]5(C)C=C(C)[C@H]4[C@]1(C)C[C@H](C)C[C@H](C)[C@@H]31)C(=O)N2 100
C[C@@H]1C[C@H](C)[C@H]2[C@H]3Oc4ccc(cc4)C[C@]4(O)C/C(=C(/O)[C@H]5[C@H](C)[C@H]6O[C@@]6(C)[C@H]([C@H]35)[C@]2(C)C1)C(=O)N4 50
CC1=C[C@@]2(C)[C@@H]3C(=O)[C@@]4(C[C@@H]2O)C(=O)NC(Cc2ccc(cc2)O[C@H]2[C@H]3[C@@H]1[C@]1(C)C[C@H](C)C[C@H](C)[C@@H]21)[C@H]4O 10
CO[C@@]12Cc3ccc(cc3)O[C@H]3[C@@H]4[C@H]5C(=O)[C@](C[C@H](O)OO[C@@]5(C)[C@H]5O[C@@]5(C)[C@H]4[C@]4(C)C[C@H](C)C[C@H](C)[C@@H]34)(C1)C(=O)N2 50

----------
- Test system: NCI-H1975
- experiment.notes: Cytotoxicity against human NCI-H1975 cells assessed as reduction in cell viability after 24 hrs by CCK8 assay
- Type: functional, cell-based
- condition.summary: NCI-H1975, 24 h
Known IC50 of a selection of compounds
parameter.measured: IC50 (µM)

C=C[C@@]1(C)C=C(C)[C@@H]2[C@@H]3[C@@H](Oc4ccc(cc4)C[C@@]4(O)C/C(=C(/O)[C@H]31)C(=O)N4)[C@@H]1[C@@H](C)C[C@@H](C)C[C@]12C 72
CO[C@@H]1/C2=C3\O[C@@H](C)[C@@]4(C)C=C(C)[C@@H]5[C@H]([C@H](Oc6ccc(cc6)C[C@]1(O)NC2=O)[C@@H]1[C@@H](C)C[C@@H](C)C[C@]15C)[C@@H]34 55
C=C[C@@]1(C)C=C(C)[C@@H]2[C@@H]3[C@H](Oc4ccc(cc4)C[C@@H]4C(=O)NC(=O)[C@@H]4C(=O)[C@H]31)[C@@H]1[C@@H](C)C[C@@H](C)C[C@]12C 75
